Test system: UO-31 renal
Test: NCI-60 one-dose screen, 48 h (100 = growth as untreated, 0 = no growth, -100 = all killed)
Conditions: 10 µM unless noted
Description: Growth inhibition of the UO-31 human tumor cell line is measured as a screen for anti-cancer activity. Cells are grown in 96 well plates and exposed to the test compound for 48 hours. Compounds are tested at a single concentration, which is 10^-5 M for most compounds. The reported endpoint is percent growth (GI% or GIPRCNT), where numbers from 0 - 100% represent growth inhibition, and numbers from -100% - 0 represent cell death. For example, a value of 40 represents 60% growth inhibition. […]
About 83,000 compounds went through this panel and 20% of them were active in at least one assay; those are over-represented in the sample as a whole.

Molecule: Clc1ccc2c(NCCCN3CCN(c4nc(-n5ccnc5)nc5ccccc45)CC3)ccnc2c1
growth / %: 43.5
--
Molecule: O=C(NCc1cccnc1)c1cc(-c2csc3c(=O)cc(N4CCOCC4)oc23)cc2c1OCCO2
growth / %: 30.3
--
Molecule: CCC(C)NCc1ccccc1 (stereo not given)
growth / %: 88
--
Molecule: O=C1NCC(=O)N(Cc2ccco2)[C@H]1Cc1ccccc1
growth / %: 99.8
--
Molecule: O=C(O)c1ccccc1C(=O)Nc1ccc(Cl)cc1
growth / %: 84.6
--
Molecule: O=C(NCc1cn(Cc2cccc(Oc3ccccc3)c2)nn1)c1cccnc1NCc1ccc(Cl)cc1
growth / %: 30.5
--
Molecule: O=[N+]([O-])c1ccc(-c2cc3c(Nc4ccc(Cl)c(C(F)(F)F)c4)ncnc3s2)cc1
growth / %: -3.64
--
Molecule: CCOc1ccc2nc(-c3cccc(OCC(=O)NC(C)C)c3)nc(Nc3ccc(-c4cn[nH]c4)cc3)c2c1
growth / %: -13.3
--
Molecule: Fc1ccc(Nc2nc3nonc3nc2Nc2ccc(F)cc2)cc1
growth / %: -6.75
--
Molecule: CCn1c(Sc2nnc(NC(=O)CCN3CCCC3)s2)nc2c1c(=O)n(C)c(=O)n2C
growth / %: 88.7
